Target: DnaJ homolog subfamily C member 7 (Homo sapiens, UniProt Q99615)
Sequence (Q99615 whole entry): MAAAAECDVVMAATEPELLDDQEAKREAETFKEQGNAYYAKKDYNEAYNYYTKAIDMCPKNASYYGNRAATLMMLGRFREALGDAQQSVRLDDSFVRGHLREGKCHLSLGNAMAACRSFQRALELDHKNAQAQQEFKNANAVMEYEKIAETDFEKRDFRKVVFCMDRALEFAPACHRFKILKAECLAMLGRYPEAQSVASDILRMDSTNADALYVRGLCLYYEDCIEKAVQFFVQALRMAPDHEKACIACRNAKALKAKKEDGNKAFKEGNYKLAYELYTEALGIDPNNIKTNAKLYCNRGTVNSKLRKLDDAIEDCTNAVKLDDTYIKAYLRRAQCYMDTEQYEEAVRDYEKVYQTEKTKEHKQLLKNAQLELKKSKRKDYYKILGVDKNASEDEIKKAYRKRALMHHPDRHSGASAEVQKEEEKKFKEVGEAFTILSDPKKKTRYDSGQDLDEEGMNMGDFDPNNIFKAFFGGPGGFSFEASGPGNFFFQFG
Experimental readout: pIC50
Units for pIC50: none; it is -log10 of a concentration expressed in mol/L.

Asked: Could you share which pIC50 value was measured for Cc1sc(NC(=O)CCCC(=O)Nc2sc(C)c(C)c2C(N)=O)c(C(N)=O)c1C ?
Given back: 5.70

---

Protein target, amino acids: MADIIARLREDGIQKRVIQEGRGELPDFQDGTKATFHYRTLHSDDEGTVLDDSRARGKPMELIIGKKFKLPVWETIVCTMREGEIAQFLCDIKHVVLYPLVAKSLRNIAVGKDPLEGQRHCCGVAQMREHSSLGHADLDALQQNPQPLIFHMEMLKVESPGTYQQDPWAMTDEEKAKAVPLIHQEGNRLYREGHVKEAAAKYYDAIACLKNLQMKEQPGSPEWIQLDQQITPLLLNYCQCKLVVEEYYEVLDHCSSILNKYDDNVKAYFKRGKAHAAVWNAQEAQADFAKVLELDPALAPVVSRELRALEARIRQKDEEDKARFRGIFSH
Experimental readout: pIC50
Units for pIC50: none; it is -log10 of a concentration expressed in mol/L.

Asked: Could you share which pIC50 value was measured for Cc1sc(NC(=O)CCCC(=O)Nc2sc(C)c(C)c2C(N)=O)c(C(N)=O)c1C ?
Given back: 5.15
